The measured values listed here are drawn from paper PMC3850785.

# Substrate: C1O[C@@H]1[C@H]1CO1
# PROTOCOL_DESCRIPTION: purified protein
# MEASUREMENT_CONDITIONS: 5 mM GSH, 0.10 M Tris-HCl pH 7.7, 37 °C, 1 h
Answer each item with its documented Km.
Unit µM implied. Number only.

Km measured on human GST T1-1 (Homo sapiens) (protein) GLELYLDLLSQPCRAVYIFAKKNDIPFELRIVDLIKGQHLSDAFAQVNPLKKVPALKDGDFTLTESVAILLYLTRKYKVPDYWYPQDLQARARVDEYLAWQHTTLRRSCLRALWHKVMFPVFLGEPVSPQTLAATLAELDVTLQLLEDKFLQNKAFLTGPHISLADLVAITELMHPVGAGCQVFEGRPKLATWRQRVEAAVGEDLFQEAHEVILKAKDFPPADPTIKQKLMPWVLAMIR = 370

Please fill in: Km reported for human GST A1-1 (Homo sapiens) (protein) AEKPKLHYFNARGRMESTRWLLAAAGVEFEEKFIKSAEDLDKLRNDGYLMFQQVPMVEIDGMKLVQTRAILNYIASKYNLYGKDIKERALIDMYIEGIADLGEMILLLPVCPPEEKDAKLALIKEKIKNRYFPAFEKVLKSHGQDYLVGNKLSRADIHLVELLYYVEELDSSLISSFPLLKALKTRISNLPTVKKFLQPGSPRKPPMDEKSLEEARKIFRF = 540

// sample rat GST 5-5 (Rattus norvegicus) (protein) VLELYLDLLSQPCRAIYIFAKKNNIPFQMHTVELRKGEHLSDAFAQVNPMKKVPAMKDGGFTLCESVAILLYLAHKYKVPDHWYPQDLQARARVDEYLAWQHTTLRRSCLRTLWHKVMFPVFLGEQIRPEMLAATLADLDVNVQVLEDQFLQDKDFLVGPHISLADVVAITELMHPVGGGCPVFEGRPRLAAWYRRVEAAVGKDLFLEAHEVILKVRDCPPADPVIKQKLMPRVLTMIQ , its Km was 830

// Km lookup, protein = human GST M1-1 (Homo sapiens) (protein) PMILGYWDIRGLAHAIRLLLEYTDSSYEEKKYTMGDAPDYDRSQWLNEKFKLGLDFPNLPYLIDGAHKITQSNAILCYIARKHNLCGETEEEKIRVDILENQTMDNHMQLGMICYNPEFEKLKPKYLEELPEKLKLYSEFLGKRPWFAGNKITFVDFLVYDVLDLHRIFEPKCLDAFPNLKDFISRFEGLEKISAYMKSSRFLPRPVFSKMAVWGNK , result: 920

The reported Km of the protein human GST A3-3 (Homo sapiens) (protein) AGKPKLHYFNGRGRMEPIRWLLAAAGVEFEEKFIGSAEDLGKLRNDGSLMFQQVPMVEIDGMKLVQTRAILNYIASKYNLYGKDIKERALIDMYTEGMADLNEMILLLPLCRPEEKDAKIALIKEKTKSRYFPAFEKVLQSHGQDYLVGNKLSRADISLVELLYYVEELDSSLISNFPLLKALKTRISNLPTVKKFLQPGSPRKPPADAKALEEARKIFRF was 750

For human GST P1-1 (Homo sapiens) (protein) PPYTVVYFPVRGRCAALRMLLADQGQSWKEEVVTVETWQEGSLKASCLYGQLPKFQDGDLTLYQSNTILRHLGRTLGLYGKDQQEAALVDMVNDGVEDLRCKYISLIYTNYEAGKDDYVKALPGQLKPFETLLSQNQGGKTFIVGDQISFADYNLLDLLLIHEVLAPGCLDAFPLLSAYVGRLSARPKLKAFLASPEYVNLPINGNGKQ the protein record lists Km as 590
